Entries annotated with measured TGI
- System: MDA-N
- Test Method Notes: NCI tumour cell line growth inhibition, 48 h

# example entries with known answers
# Compound, Test System, TGI
measured = [
    ("Cc1ccc2c(/C=C/c3ccc(N(C)C)cc3)ccnc2c1C", "MDA-N", "> 100 µM"),
    ("c1ccc(N=C(N2CCCCC2)N(CCN2CCCCC2)c2ccccc2)cc1", "MDA-N", "2.96 µM"),
    ("COc1ccc(N)c(C(=O)CCNC(C)=O)c1", "MDA-N", "> 100 µM"),
    ("O=C(O)CCC1(C(=O)O)CCC(=O)c2ccccc21 (stereo unspecified)", "MDA-N", "> 100 µM"),
    ("O=C(O)C(CCc1ccccc1)N1C(=O)c2ccccc2C1=O (stereo unspecified)", "MDA-N", "> 100 µM"),
]

Ask: Specify TGI for "CCOC(=O)c1ccc(C(=O)/C(C#N)=C2\CCCN2)n1C" and stop.
Reply: > 100 µM
